The entries below come with measured TGI values attached.
# Tested on: MOLT-4 leukemia
# Test description: NCI tumour cell line growth inhibition, 48 h
Where a SMILES comes first, the peptide text is derived from it. The star is where a group is joined. Cbz = O=C(OCc1ccccc1)*; NHNH2 = NN*

Compound	TGI
CCOC(=O)CCC(NC(=O)OCc1ccccc1)C(=O)NC(CCC(=O)OCC)C(=O)NN (stereo not drawn) (Cbz-Glu(OEt)-Glu(OEt)-NHNH2; configuration not given here)	> 100 µM
O=C1CSC2=NC3=C(CSC/C3=C\c3ccccc3)C(c3ccccc3)N12 (stereo not drawn)	> 100 µM
Cc1ccc2[nH]c3[nH]c(=S)[nH]c(=O)c3c2c1	> 100 µM
COc1ccc2c3c1OC1C34CCN(C)C(C2)C4=CC(I)C1(OC)OC (stereo not drawn)	21.2 µM

Enquiry: # TGI lookup, item CNC(=O)OC(COC)CN1CCN(c2ccccc2C)CC1 (stereo not drawn)
Return: > 10 µM

Enquiry: # TGI lookup, item CCN(CC)CCCNc1[nH]ncc2c(C)c3nc4ccc(OC)cc4c3cc12
Return: 0.0904 µM

Enquiry: # TGI lookup, item COC1C2c3cc4c(cc3CC(C#N)(c3ccccc32)N1C(=O)c1ccccc1)OCO4 (stereo not drawn)
Return: > 100 µM

Enquiry: # TGI lookup, item C[N+]1(CCC[N+]2(C)CC3C4C=CC(CC4)C3C2)CCOCC1 (stereo not drawn)
Return: > 100 µM

* * *

# System: LOX IMVI melanoma
# Test description: NCI tumour cell line growth inhibition, 48 h
Endpoint: TGI (µM)
Note: unit µM is implicit; provide only the numeric part.

Enquiry: # TGI lookup, item NC(=S)N=Nc1c(O)c2ccccc2c2ccccc12
Return: 11.1

Enquiry: # TGI lookup, item O=C(/C=C/C12c3ccccc3C(c3ccccc31)C1C(=O)NC(=O)C12)c1ccc(Cl)cc1 (stereo not given)
Return: 3

Enquiry: # TGI lookup, item Nc1nc(N)c2cc(Sc3cccc(C(F)(F)F)c3)ccc2n1
Return: 1.82

Enquiry: # TGI lookup, item CCOc1ccc(O)cc1[P+](c1ccccc1)(c1ccccc1)c1ccccc1
Return: 13.6

Enquiry: # TGI lookup, item O=S(=O)(Nc1ccc(F)c(Cl)c1)c1ccc(-c2cnc(C3CC3)o2)cc1
Return: 13.5

* * *

# Tested on: OVCAR-4 ovarian
# Test description: NCI tumour cell line growth inhibition, 48 h
The entries below come with measured TGI values attached.
Note: unit µM is implicit; provide only the numeric part.

Some compounds with recorded TGI:
Compound	Measurement target	Unit label	Quantitative result
CCCCCCCCCCCCCC(=O)CSCCNC(=O)CCNC(=O)[C@@H](O)C(C)(C)COP(=O)(O)OP(=O)(O)OCC1OC(n2cnc3c(N)ncnc32)C(O)C1OP(=O)(O)O (stereo partly drawn)	OVCAR-4 ovarian	µM	22.3
COc1ccccc1NS(=O)(=O)c1ccc2oc(SC(C)C)nc2c1	OVCAR-4 ovarian	µM	77.6
O=C(OC/C=C1C=C(OC(=O)c2ccccc2)/C(=N/N(C(=O)c2ccccc2)c2ccccc2)O\1)c1ccccc1	OVCAR-4 ovarian	µM	22.1
COP(=O)(OC)/C(=C/c1cn(C(c2ccccc2)(c2ccccc2)c2ccccc2)cn1)NC=O	OVCAR-4 ovarian	µM	51.9

Now consider a different compound.
Enquiry: # TGI lookup, item O=C(/C=C/C12c3ccccc3C(c3ccccc31)C1C(=O)NC(=O)C12)c1ccc(Cl)cc1 (stereo not drawn)
Return: 2.76
